# System: Klebsiella pneumoniae
# METHOD: Antibacterial activity against extended-spectrum beta-lactamase producing Klebsiella pneumoniae 700603 after 18 hrs by agar dilution method
# Assay type: functional
# EXPERIMENTAL CONTEXT: Klebsiella pneumoniae, 700603, 18 h
Bridge positions count the residues as written; N and C are the ends. Square brackets hold non-standard residues; d marks the D form. Peptide text beside a SMILES is read from it. * marks the point of attachment. X1 = CC[C@H](C)CCCCC(=O)*; Dab = NCC[C@H](N)C(=O)O; Nva = CCC[C@H](N)C(=O)O
QUANTITY MEASURED: MIC (µg/mL)
Please state the figure in µg/mL; there is no need to write the unit.

Sure, the documented MIC for CCC[C@@H]1NC(=O)[C@@H](CC(C)C)NC(=O)[C@H](CCN)NC(=O)[C@@H](NC(=O)[C@H](CCN)NC(=O)[C@@H](NC(=O)[C@H](CCN)NC(=O)CCCC[C@@H](C)CC)[C@@H](C)O)CCNC(=O)[C@H]([C@@H](C)O)NC(=O)[C@H](CCN)NC(=O)[C@H](CCN)NC1=O (X1-[Dab]T[Dab][Dab][Dab][dL][Nva][Dab][Dab]T; lactam 4-C) is 2

----------
# Test system: Klebsiella pneumoniae
# METHOD: Antibacterial activity against extended-spectrum beta-lactamase producing Klebsiella pneumoniae 700603 after 18 hrs by agar dilution method
# Format: functional
# EXPERIMENTAL CONTEXT: Klebsiella pneumoniae, 700603, 18 h
Bridge positions count the residues as written; N and C are the ends. Square brackets hold non-standard residues; d marks the D form. Peptide text beside a SMILES is read from it. * marks the point of attachment. X1 = CC[C@H](C)CCCCC(=O)*; Octanoyl = CCCCCCCC(=O)*; Dab = NCC[C@H](N)C(=O)O
QUANTITY MEASURED: MIC (µg/mL)
Please state the figure in µg/mL; there is no need to write the unit.

Consider the reported MIC for these molecules:
{"MOLECULE": "CCCCCCCC(=O)N[C@@H](CCN)C(=O)N[C@H](C(=O)N[C@@H](CCN)C(=O)N[C@H]1CCNC(=O)[C@H]([C@@H](C)O)NC(=O)[C@H](CCN)NC(=O)[C@H](CCN)NC(=O)[C@H](CC(C)C)NC(=O)[C@@H](CC(C)C)NC(=O)[C@H](CCN)NC1=O)[C@@H](C)O (Octanoyl-[Dab]T[Dab][Dab][Dab][dL]L[Dab][Dab]T; lactam 4-C)", "UNIT INFO": "µg/mL", "VALUE REPORTED": 1}
{"MOLECULE": "CC[C@H](C)[C@@H]1NC(=O)[C@@H](CC(C)C)NC(=O)[C@H](CCN)NC(=O)[C@@H](NC(=O)[C@H](CCN)NC(=O)[C@@H](NC(=O)[C@H](CCN)NC(=O)CCCCC(C)C)[C@@H](C)O)CCNC(=O)[C@H]([C@@H](C)O)NC(=O)[C@H](CCN)NC(=O)[C@H](CCN)NC1=O", "UNIT INFO": "µg/mL", "VALUE REPORTED": 0.5}

API: the following record is the query input.
Sure, the documented MIC for CC[C@H](C)CCCCC(=O)N[C@@H](CCN)C(=O)N[C@H](C(=O)N[C@@H](CCN)C(=O)N[C@H]1CCNC(=O)[C@H]([C@@H](C)O)NC(=O)[C@H](CCN)NC(=O)[C@H](CCN)NC(=O)[C@H]([C@@H](C)O)NC(=O)[C@@H](CC(C)C)NC(=O)[C@H](CCN)NC1=O)[C@@H](C)O (X1-[Dab]T[Dab][Dab][Dab][dL]T[Dab][Dab]T; lactam 4-C) is 0.25

----------
# METHOD: Cytotoxicity against African green monkey Vero cells after 72 hrs by MTT assay
# Assay type: cell-based
# EXPERIMENTAL CONTEXT: chlorocebus sabaeus, Vero cells
Bridge positions count the residues as written; N and C are the ends. Square brackets hold non-standard residues; d marks the D form. Peptide text beside a SMILES is read from it. * marks the point of attachment. Heptanoyl(6-Me) = CC(C)CCCCC(=O)*; Octanoyl(7-Me) = CC(C)CCCCCC(=O)*; X1 = CC[C@H](C)CCCCC(=O)*; dDab = NCC[C@@H](N)C(=O)O; Dab = NCC[C@H](N)C(=O)O; Nva = CCC[C@H](N)C(=O)O
Hi! Could you tag entries with CC50 at 72 h below 200 µg/mL as TRUE, and those at or above as FALSE? Much appreciated.

{"COMPOUND": "CC[C@H](C)CCCCC(=O)N[C@@H](CCN)C(=O)N[C@H](C(=O)N[C@H](CCN)C(=O)N[C@H]1CCNC(=O)[C@H]([C@@H](C)O)NC(=O)[C@H](CCN)NC(=O)[C@H](CCN)NC(=O)[C@H]([C@@H](C)O)NC(=O)[C@@H](CC(C)C)NC(=O)[C@H](CCN)NC1=O)[C@@H](C)O (X1-[Dab]T[dDab][Dab][Dab][dL]T[Dab][Dab]T; lactam 4-C)", "CLASS NAME": "TRUE"}
{"COMPOUND": "CCC[C@@H]1NC(=O)[C@@H](CC(C)C)NC(=O)[C@H](CCN)NC(=O)[C@@H](NC(=O)[C@H](CCN)NC(=O)[C@@H](NC(=O)[C@H](CCN)NC(=O)CCCCC(C)C)[C@@H](C)O)CCNC(=O)[C@H]([C@@H](C)O)NC(=O)[C@H](CCN)NC(=O)[C@H](CCN)NC1=O ({Heptanoyl(6-Me)}-[Dab]T[Dab][Dab][Dab][dL][Nva][Dab][Dab]T; lactam 4-C)", "CLASS NAME": "TRUE"}
{"COMPOUND": "CC(C)CCCCC(=O)N[C@@H](CCN)C(=O)N[C@H](C(=O)N[C@@H](CCN)C(=O)N[C@H]1CCNC(=O)[C@H]([C@@H](C)O)NC(=O)[C@H](CCN)NC(=O)[C@H](CCN)NC(=O)[C@H](C(C)C)NC(=O)[C@@H](CC(C)C)NC(=O)[C@H](CCN)NC1=O)[C@@H](C)O ({Heptanoyl(6-Me)}-[Dab]T[Dab][Dab][Dab][dL]V[Dab][Dab]T; lactam 4-C)", "CLASS NAME": "FALSE"}
{"COMPOUND": "CC(C)CCCCCC(=O)N[C@@H](CCN)C(=O)N[C@H](C(=O)N[C@@H](CCN)C(=O)N[C@H]1CCNC(=O)[C@H]([C@@H](C)O)NC(=O)[C@H](CCN)NC(=O)[C@H](CCN)NC(=O)[C@H](CC(C)C)NC(=O)[C@@H](CC(C)C)NC(=O)[C@H](CCN)NC1=O)[C@@H](C)O ({Octanoyl(7-Me)}-[Dab]T[Dab][Dab][Dab][dL]L[Dab][Dab]T; lactam 4-C)", "CLASS NAME": "TRUE"}

CC50 at 72 h strictly < 200 µg/mL for this compound? CC[C@H](C)CCCCC(=O)N[C@@H](CCN)C(=O)N[C@H](C(=O)N[C@H](CO)C(=O)N[C@H]1CCNC(=O)[C@H]([C@@H](C)O)NC(=O)[C@H](CCN)NC(=O)[C@H](CCN)NC(=O)[C@H]([C@@H](C)O)NC(=O)[C@@H](CC(C)C)NC(=O)[C@H](CCN)NC1=O)[C@@H](C)O (X1-[Dab]T[dS][Dab][Dab][dL]T[Dab][Dab]T; lactam 4-C)
TRUE

----------
Recorded MIC, one value per entry.
# System: Klebsiella pneumoniae
# METHOD: Antibacterial activity against extended-spectrum beta-lactamase producing Klebsiella pneumoniae 700603 after 18 hrs by agar dilution method
# Format: functional
# EXPERIMENTAL CONTEXT: Klebsiella pneumoniae, 700603, 18 h
Bridge positions count the residues as written; N and C are the ends. Square brackets hold non-standard residues; d marks the D form. Peptide text beside a SMILES is read from it. * marks the point of attachment. Heptanoyl(6-Me) = CC(C)CCCCC(=O)*; Octanoyl(7-Me) = CC(C)CCCCCC(=O)*; X1 = CC[C@H](C)CCCCC(=O)*; Dab = NCC[C@H](N)C(=O)O
Please state the figure in µg/mL; there is no need to write the unit.

Consider the reported MIC for these compounds:
{"COMPOUND": "CC(C)CCCCCC(=O)N[C@@H](CCN)C(=O)N[C@H](C(=O)N[C@@H](CCN)C(=O)N[C@H]1CCNC(=O)[C@H]([C@@H](C)O)NC(=O)[C@H](CCN)NC(=O)[C@H](CCN)NC(=O)[C@H](CC(C)C)NC(=O)[C@@H](CC(C)C)NC(=O)[C@H](CCN)NC1=O)[C@@H](C)O ({Octanoyl(7-Me)}-[Dab]T[Dab][Dab][Dab][dL]L[Dab][Dab]T; lactam 4-C)", "TEST SYSTEM": "Klebsiella pneumoniae", "UNIT INFO": "µg/mL", "VALUE REPORTED": 1}
{"COMPOUND": "CC(C)CCCCC(=O)N[C@@H](CCN)C(=O)N[C@H](C(=O)N[C@@H](CCN)C(=O)N[C@H]1CCNC(=O)[C@H]([C@@H](C)O)NC(=O)[C@H](CCN)NC(=O)[C@H](CCN)NC(=O)[C@H](CC(C)C)NC(=O)[C@@H](CC(C)C)NC(=O)[C@H](CCN)NC1=O)[C@@H](C)O [COLISTIN B] ({Heptanoyl(6-Me)}-[Dab]T[Dab][Dab][Dab][dL]L[Dab][Dab]T; lactam 4-C)", "TEST SYSTEM": "Klebsiella pneumoniae", "UNIT INFO": "µg/mL", "VALUE REPORTED": 1}

API: the following record is the query input.
Item CC[C@H](C)CCCCC(=O)N[C@@H](CCN)C(=O)N[C@H](C(=O)N[C@H](CO)C(=O)N[C@H]1CCNC(=O)[C@H]([C@@H](C)O)NC(=O)[C@H](CCN)NC(=O)[C@H](CCN)NC(=O)[C@H]([C@@H](C)O)NC(=O)[C@@H](CC(C)C)NC(=O)[C@H](CCN)NC1=O)[C@@H](C)O (X1-[Dab]T[dS][Dab][Dab][dL]T[Dab][Dab]T; lactam 4-C) was tested on Klebsiella pneumoniae; the reported MIC is 1
